Provide the recorded pIC50 for the entries that follow.
# test target: Isocitrate lyase (Candida albicans, UniProt Q9P8Q7)
# Sequence (Q9P8Q7 whole entry): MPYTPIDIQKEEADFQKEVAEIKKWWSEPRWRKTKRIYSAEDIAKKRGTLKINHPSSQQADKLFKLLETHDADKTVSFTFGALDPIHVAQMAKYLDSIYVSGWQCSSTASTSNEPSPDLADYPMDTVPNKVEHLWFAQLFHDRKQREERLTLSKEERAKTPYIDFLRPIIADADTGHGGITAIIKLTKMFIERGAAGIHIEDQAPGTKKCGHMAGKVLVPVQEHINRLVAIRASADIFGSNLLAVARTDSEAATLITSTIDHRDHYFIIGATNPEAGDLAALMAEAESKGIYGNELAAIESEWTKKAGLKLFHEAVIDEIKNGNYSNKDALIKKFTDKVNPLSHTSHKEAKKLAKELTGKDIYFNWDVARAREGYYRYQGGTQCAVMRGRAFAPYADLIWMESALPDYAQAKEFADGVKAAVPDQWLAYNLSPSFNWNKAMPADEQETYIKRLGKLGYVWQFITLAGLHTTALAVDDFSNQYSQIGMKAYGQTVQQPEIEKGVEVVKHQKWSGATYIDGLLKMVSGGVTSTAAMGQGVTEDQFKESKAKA
# assay name: Inhibition of Candida albicans recombinant ICL assessed as formation of glyoxylate phenylhydrazone by spectrophotometry
pIC50: −log10 of the molar value.

Study these solved cases before continuing.
>>> print(df.to_string())
                                   compound  observed_measurement
0  Cc1ccc(S(=O)(=O)Oc2ccc(C(O)c3nccc4c3[nH]c3ccc(Br)cc34)cc2Br)cc1 (stereo not drawn) [EUDISTOMIN Y12]                < 3.78
1  O=C(c1ccc(O)c(Br)c1)c1nccc2c1[nH]c1ccccc12 [EUDISTOMIN Y3]                < 3.56

With those in mind, consider the next compound.
Entry OC(c1ccccc1)c1nccc2c1[nH]c1ccc(Br)cc12 (stereo not drawn) [EUDISTOMIN Y13] ; pIC50 = < 3.55
